- measured-target: T1, human GIP receptor (human, UniProt P48546 22-466)
- T1 sequence (looked up): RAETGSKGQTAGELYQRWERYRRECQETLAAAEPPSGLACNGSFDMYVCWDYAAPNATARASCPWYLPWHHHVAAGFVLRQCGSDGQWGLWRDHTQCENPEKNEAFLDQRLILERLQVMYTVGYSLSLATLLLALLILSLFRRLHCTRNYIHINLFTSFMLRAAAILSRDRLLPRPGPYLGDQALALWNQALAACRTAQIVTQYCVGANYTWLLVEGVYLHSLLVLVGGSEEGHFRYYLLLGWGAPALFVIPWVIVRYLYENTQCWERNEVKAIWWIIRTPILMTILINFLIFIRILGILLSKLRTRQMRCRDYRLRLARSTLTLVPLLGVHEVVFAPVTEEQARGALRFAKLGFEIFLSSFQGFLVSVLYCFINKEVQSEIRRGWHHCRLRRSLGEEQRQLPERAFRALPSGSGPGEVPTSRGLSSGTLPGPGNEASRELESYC
- assay-notes: cell-based or functional assay
Where no end group is shown, it is not given here. [ ]: non-standard residue; d: D form. Phe(4-NO2) = N[C@@H](Cc1ccc([N+](=O)[O-])cc1)C(=O)O; Met(O) = CS(=O)CC[C@H](N)C(=O)O; Phg = N[C@H](C(=O)O)c1ccccc1; Nle = CCCC[C@H](N)C(=O)O; Aib = CC(C)(N)C(=O)O
quantity-measured: EC50, GIP Receptor cAMP induction (nM)
Answer format: numeric, nM implied, no suffix.

binder: Y[Aib]EGTFTSDYSI[Phe(4-NO2)]MEKIHQQDFVNWLLAQ-NH2 [Analog 016]
scale-unit: nM
meas-value: 18.3
//
binder: Y[Aib]EGTFTSDYSI[Phg][Nle]EKIHQQDFVNWLLAQ-NH2 [Analog 009]
scale-unit: nM
meas-value: 22.2

Data request: Dear colleague, please send me the reported EC50, GIP Receptor cAMP induction for Y[Aib]EGTFTSDYSIF[Met(O)]EKIHQQDFVNWLLAQ-NH2 [Analog 007] when you can.
Data returned: 19
